experiment: Cytotoxicity against human MT4 cells after 5 days by MTT assay; assay type: cell-based
metric: CC50 at 120 h

Below are worked cases with known answers.
In [3]: df
Out[3]:
                                   compound         metric  result_value
0  O=C1Nc2ccc(Cl)cc2[C@@](C#CC2CC2)(C(F)(F)F)O1 [EFAVIRENZ]  CC50 at 120 h     > 6.34 µM
1  Cc1cc(/C=C/C#N)cc(C)c1Oc1cc(Cl)nc(NCCn2ccc(=O)[nH]c2=O)n1  CC50 at 120 h      > 285 µM

Per the record, Cc1cc(/C=C/C#N)cc(C)c1Oc1cc(N)nc(NCCn2ccc(=O)[nH]c2=O)n1 has CC50 at 120 h of > 298 µM

###

test: Selectivity index, ratio of CC50 for human MT4 cells to EC50 for wild-type HIV1 3B infected in human MT4 cells; type: toxicity, cell-based; details: read-out: Ratio CC50/EC50
Overview of reported selectivity ratio across a group of compounds:

Take a look at these entries with their results.
In [3]: df
Out[3]:
                               entry_smiles             metric  result_value
0  Cc1cc(/C=C/C#N)cc(C)c1Oc1ccnc(NCCn2ccc(=O)[nH]c2=O)n1  selectivity ratio        > 9100
1  Cc1cc(/C=C/C#N)cc(C)c1Oc1cc(N)nc(NCCn2ccc(=O)[nH]c2=O)n1  selectivity ratio        > 1740
2  Cc1cc(C#N)cc(C)c1Oc1nc(NCCn2ccc(=O)[nH]c2=O)nc(N)c1Br  selectivity ratio        > 7680

Entry under test: Cc1cc(C#N)cc(C)c1Oc1nc(NCCn2ccc(=O)[nH]c2=O)ncc1Cl . Its selectivity ratio was ≥ 255
